IC50 values for the protein given by its sequence compiled from several publications are listed below.
Sequence of the target: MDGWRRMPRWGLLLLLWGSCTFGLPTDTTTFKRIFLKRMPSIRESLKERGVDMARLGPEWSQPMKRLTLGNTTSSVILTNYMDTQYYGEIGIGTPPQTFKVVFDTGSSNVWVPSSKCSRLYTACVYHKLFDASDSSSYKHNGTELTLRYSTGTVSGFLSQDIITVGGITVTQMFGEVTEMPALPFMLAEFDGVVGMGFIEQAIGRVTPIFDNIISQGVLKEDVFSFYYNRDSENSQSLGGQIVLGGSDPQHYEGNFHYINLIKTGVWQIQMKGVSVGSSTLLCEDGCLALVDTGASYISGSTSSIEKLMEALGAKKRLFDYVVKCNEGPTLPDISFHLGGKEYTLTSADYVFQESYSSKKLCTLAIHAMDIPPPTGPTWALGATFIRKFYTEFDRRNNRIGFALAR

1) CC[C@H](C)[C@H](NC(=O)[C@H](CC1CCCCC1)NC(=O)OC(C)(C)C)C(=O)N[C@@H](CC(C)C)[C@@H](O)CC(=O)NCCc1ccccn1: > 1 µM
2) CC[C@@H](C)[C@H](NC(=O)OC(C)(C)C)C(=O)N[C@H](C(=O)N[C@@H](Cc1ccc2ccccc2c1)[C@@H](O)[C@@H](O)CC(C)C)[C@H](C)CC: > 10 µM
3) CCCCNS(=O)(=O)C[C@@H](O)[C@H](O)[C@H](CC1CCCCC1)NC(C)=O: > 1000 µM
4) C[C@@H](NC(=O)c1cc(C(=O)N[C@@H](Cc2ccccc2)[C@H](O)CN)cc(N(C)S(C)(=O)=O)c1)c1ccc(F)cc1: > 50 µM

Now turn to the next molecule.
Data request: Lab request: please report IC50 under test system the protein given by its sequence for CCCCNS(=O)(=O)C[C@H](O)[C@H](O)[C@H](CC1CCCCC1)NC(C)=O
Data returned: > 1000 µM
